// provenance: the supplement of paper PMC11061612

Tested on: NCI-H1299 (Non-Small Cell Lung Carcinoma);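 also: after 72 h of two-drug dosing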
Test: Bliss excess, mean over the matrix (fraction); higher = more synergy
VALUE KIND: Bliss excess

Task: Reported Bliss excess for Cc1cc2ncnn2cc1Nc1ncc2c(n1)n(C1CCOCC1)c(=O)n2C [AZD7648] + C=CCn1c(=O)c2cnc(Nc3ccc(N4CCN(C)CC4)cc3)nc2n1-c1cccc(C(C)(C)O)n1 [AZD1775] (first compound max 10 µM, partner max 1 µM) : what is it?
Result: -0.0314

Task: Same for COc1nnc2ccc(N3CCC(c4ccc(OCCN5CCN(C)C(=O)[C@H]5C)cc4)CC3)nn12 [AZD5153] + C[C@@H]1COCCN1C2=NC(=NC(=C2)C3(CC3)[S@](=N)(=O)C)C4=C5C=CNC5=NC=C4 [AZD6738] (first compound max 1 µM, 7x7, partner max 10 µM)
Result: -0.0088

Task: Same for CN(C)CCCOc1ccc(-c2ccc3ncc4c(c3c2)n(C2CCOCC2)c(=O)n4C)cn1 [AZD0156] + C[C@@H]1COCCN1C2=NC(=NC(=C2)C3(CC3)[S@](=N)(=O)C)C4=C5C=CNC5=NC=C4 [AZD6738] (first compound max 1 µM, 7x7, partner max 10 µM)
Result: 0.0234

Task: Same for COc1cccc(OCCCN)c1-c1cc(Nc2cnc(C#N)cn2)n[nH]1 [Prexasertib] + CCc1c2c(nc3ccc(O)cc13)-c1cc3c(c(=O)n1C2)COC(=O)[C@]3(O)CC [SN-38] (first compound max 1 µM, 7x7, partner max 0.3 µM)
Result: -0.0161

Task: Same for Cc1c2c(nn1C)CSCc1cc(n(C)n1)CSc1cc(c3ccccc3c1)OCCCc1c(C(=O)O)n(C)c3c-2c(Cl)ccc13 [AZD5991] + C1CN(CCC1(C(=O)N[C@@H](CCO)C2=CC=C(C=C2)Cl)N)C3=NC=NC4=C3C=CN4 [Capivasertib] (first compound max 1 µM, 7x7, partner max 3 µM)
Result: -0.0174

Task: Same for N#Cc1cnc(Nc2cc(NC[C@H]3CNCCO3)c(C(F)(F)F)cn2)cn1 [SRA737] + CCc1c2c(nc3ccc(O)cc13)-c1cc3c(c(=O)n1C2)COC(=O)[C@]3(O)CC [SN-38] (first compound max 10 µM, 7x7, partner max 0.3 µM)
Result: 0.0179

Task: Same for NC1(C(=O)N[C@@H](CCO)c2ccc(Cl)cc2)CCN(c2ncnc3[nH]ccc23)CC1 [Capivasertib] + CC(C)n1c(=O)n(C)c2cnc3cc(F)c(-c4ccc(OCCCN5CCCCC5)nc4)cc3c21 [AZD1390] (first compound max 10 µM, 7x7, partner max 0.3 µM)
Result: -0.0362
